- Test protocol: Cytotoxicity on murine macrophages, MTT assay
- Type: cell-based
- Applied conditions: mouse, J774A.1 macrophage cell line, J774A.1 macrophages, CC50 ± SEM
Assay metric: CC50 at 24 h (µM)
Give bare numbers, in µM.

// for each molecule below, give its CC50 at 24 h
1. COc1ccc(C(=O)/C=C/c2ccccc2)c2c(OC)cccc12
2. COc1cccc(/C=C/C(=O)c2ccc(OC)c3cccc(OC)c23)c1
3. COc1ccc(/C=C/C(=O)c2ccc(OC)c3cccc(OC)c23)cc1
4. COc1ccc(C(=O)/C=C/c2cccc([N+](=O)[O-])c2)c2c(OC)cccc12

*A*
[872, 247, 415, 366]

Attribution: paper PMC9598561
